# Assayed target: T1, human HLA-A*0201 molecule (human, UniProt P04439 25-302 at identity 0.94))
# T1 construct: whole, on cells; MHC class I molecule on the surface of T2-0201 cells; also called HLA-A0201 class I molecule
# T1 MHC heavy: not shown
# Assay name: MHC stabilization assay, T2-0201 cells, flow cytometry of surface HLA-A0201 (non-peptide 275.7)
Measured property: MFI

For orientation, consider the following solved cases.
KLPRTFCQL (Synthesized 9-residue peptide of eEF2; also called candidate peptide number 7) [eEF2284-292 peptide] : 449
LMMYISKMV (Synthesized 9-residue peptide of eEF2; also called candidate peptide number 6) [eEF2394-402 peptide] : 448
RLMEPIYLV (Synthesized 9-residue peptide of eEF2; also called candidate peptide number 2) [eEF2739-747 peptide] : 665
ILTDITKGV (Synthesized 9-residue peptide of eEF2; also called candidate peptide number 5) [eEF2661-669 peptide] : 828
YLNEIKDSV (Synthesized 9-residue peptide of eEF2; also called candidate peptide number 4) [eEF2671-679 peptide] : 523

a = KLVEGLKRL (Synthesized 9-residue peptide of eEF2; also called candidate peptide number 3) [eEF2519-527 peptide]
b = LILDPIFKV (Synthesized 9-residue peptide of eEF2; also called candidate peptide number 1) [eEF2292-300 peptide]
For this pair, a and b , which shows a numerically higher MFI? Provide the label of your selected option as the answer.
b

Reference for the values: patent US20160051652A1
